Taken from patent US20220229058A1.

biological target: norovirus GII.3 TCH strain virus-like particle (VLP) (norovirus GII.3 TCH strain); assay: BLI (BLItz), biotinylated peptide on SA chip, VLP in solution
Where no end group is shown, it is not given here.
In this section we review reported pKd values for a set of binders.
Kindly note that pKd refers to -log10 of the concentration in mol/L and answer with the value alone.

Use these answered entries as a reference point.
Binder	Readout Value
YVVASKSNRL (also: biotinylated, residue not given here, spacer sequence added, letters and position not given here) [norovirus-binding peptide of SEQ ID NO: 143]	7.87
VCVDNDISMS (also: biotinylated, residue not given here, spacer sequence added, letters and position not given here) [norovirus-binding peptide of SEQ ID NO: 150]	6.36

Briefly, pKd measured for SVMVTRSLFG (also: biotinylated, residue not given here, spacer sequence added, letters and position not given here) [norovirus-binding peptide of SEQ ID NO: 163] : 8.12

Briefly, pKd measured for ICSSWFPSVH (also: biotinylated, residue not given here, spacer sequence added, letters and position not given here) [norovirus-binding peptide of SEQ ID NO: 48] : 7.52

Briefly, pKd measured for YRRSKSEIFV (also: biotinylated, residue not given here, spacer sequence added, letters and position not given here) [norovirus-binding peptide of SEQ ID NO: 59] : 8.05

Briefly, pKd measured for YVIRNSDRHN (also: biotinylated, residue not given here, spacer sequence added, letters and position not given here) [norovirus-binding peptide of SEQ ID NO: 43] : 7.17
